The measurements presented in this section are drawn from paper PMC10681007.

Test system: IMR-32
Assay: RealTime-Glo MT cell viability assay
Assay type: cell-based, Human
Conditions: Homo sapiens; IMR-32, 72 hours
pIC50: −log10 of the molar value.
Each record here notes measured pIC50.
Parameter measured: pIC50

>  <Molecule>
CN[C@@H](C)C(=O)N[C@H]1CN(C(=O)CC(C)C)CC[C@H]2CC[C@@H](C(=O)NC(c3ccccc3)c3ccccc3)N2C1=O

>  <System tested>
IMR-32

>  <Recorded result>
4.19

$$$$
>  <Molecule>
CN[C@@H](C)C(=O)N[C@H](C(=O)N1CCC[C@H]1c1nc(C(=O)c2ccc(F)cc2)cs1)C1CCCCC1

>  <System tested>
IMR-32

>  <Recorded result>
4.72

$$$$
>  <Molecule>
CN[C@@H](C)C(=O)N[C@H](C(=O)N1CCC[C@H]1C(=O)Nc1sc(-c2ncco2)nc1-c1ccccc1)C1CCCCC1

>  <System tested>
IMR-32

>  <Recorded result>
4.39

$$$$
